# Test system: Staphylococcus sp.
# measurementDescription: In vitro antibacterial evaluation: minimum inhibitory concentration (MIC), broth dilution method
# Assay type: cell-based
# assayContext: strain GC 6257; broth dilution, 18 hours at 35° C.
propertyLabel: MIC Coagulase Negative Staphylococcus (GC 6257)

These recorded examples may help you get a feel for the data.
Cc1cc(C2OCC3OC(OC4C(CO)OC(Oc5ccc(CC6NC(=O)C(C(C)c7ccccc7)NC(=O)CNC(=O)C(CO)NC(=O)C(C(O)C7CNC(=N)N7C7OC(CO)C(O)C(O)C7O)NC(=O)C(C(O)C7CNC(=N)N7)NC6=O)cc5)C(O)C4O)C(O)C(O)C3O2)ccc1[N+](=O)[O-] (stereo not shown)
2 µg/mL
CC(C)=CCCC(C)CC1OCC2OC(OC3C(CO)OC(Oc4ccc(CC5NC(=O)C(C(C)c6ccccc6)NC(=O)CNC(=O)C(CO)NC(=O)C(C(O)C6CNC(=N)N6C6OC(CO)C(O)C(O)C6O)NC(=O)C(C(O)C6CNC(=N)N6)NC5=O)cc4)C(O)C3O)C(O)C(O)C2O1 (stereo not shown)
8 µg/mL
CC(c1ccccc1)C1NC(=O)CNC(=O)C(CO)NC(=O)C(C(O)C2CNC(=N)N2C2OC(CO)C(O)C(O)C2O)NC(=O)C(C(O)C2CNC(=NC(=O)C(C)(C)C)N2)NC(=O)C(Cc2ccc(OC3OC(CO)C(OC4OC(CO)C(O)C(O)C4O)C(O)C3O)cc2)NC1=O (stereo not shown)
1 µg/mL
CC(c1ccccc1)C1NC(=O)CNC(=O)C(CO)NC(=O)C(C(O)C2CNC(=N)N2C2OC(CO)C(O)C(O)C2O)NC(=O)C(C(O)C2CNC(=N)N2)NC(=O)C(Cc2ccc(OC3OC(CO)C(OC4OC5COC(c6cccc(O)c6)OC5C(O)C4O)C(O)C3O)cc2)NC1=O (stereo not shown)
4 µg/mL
CC(c1ccccc1)C1NC(=O)CNC(=O)C(CO)NC(=O)C(C(O)C2CNC(=N)N2C2OC(CO)C(O)C(O)C2O)NC(=O)C(C(O)C2CNC(=N)N2)NC(=O)C(Cc2ccc(OC3OC(CO)C(OC4OC(CO)C(O)C5OC(c6ccccc6)OC45)C(O)C3O)cc2)NC1=O (single isomer, unassigned) [Example 104b]
2 µg/mL
COC1CCC2(C)C(CCC3C2CCC2(C)C(C(C)CCC4OCC5OC(OC6C(CO)OC(Oc7ccc(CC8NC(=O)C(C(C)c9ccccc9)NC(=O)CNC(=O)C(CO)NC(=O)C(C(O)C9CNC(=N)N9C9OC(CO)C(O)C(O)C9O)NC(=O)C(C(O)C9CNC(=N)N9)NC8=O)cc7)C(O)C6O)C(O)C(O)C5O4)CCC32)C1 (stereo not shown)
32 µg/mL

Measured MIC Coagulase Negative Staphylococcus (GC 6257) of CC(c1ccccc1)C1NC(=O)CNC(=O)C(CO)NC(=O)C(C(O)C2CN(Cc3ccc(-c4ccccc4)cc3)C(=N)N2C2OC(CO)C(O)C(O)C2O)NC(=O)C(C(O)C2CNC(=NCc3ccc(-c4ccccc4)cc3)N2Cc2ccc(-c3ccccc3)cc2)NC(=O)C(Cc2ccc(OC3OC(CO)C(OC4OC(CO)C(O)C(O)C4O)C(O)C3O)cc2)NC1=O (stereo not shown) : 4 µg/mL

* * *

Entries and their measured MIC Enterococcus faecalis (GC 4553) follow.
# Test system: Enterococcus sp.
# measurementDescription: In vitro antibacterial evaluation: minimum inhibitory concentration (MIC), broth dilution method
# Format: cell-based
# assayContext: broth dilution, inoculum 5×10^5 CFU/mL, 18 hours at 35° C.
Answer format: numeric, µg/mL implied, no suffix.

CC(C1CCCCC1)C1NC(=O)CNC(=O)C(CO)NC(=O)C(C(O)C2CNC(=N)N2C2OC(CO)C(O)C(O)C2O)NC(=O)C(C(O)C2CNC(=N)N2)NC(=O)C(Cc2ccc(OC3OC(CO)C(OC4OC5COC(c6ccccc6)OC5C(O)C4O)C(O)C3O)cc2)NC1=O (stereo not shown)
1

Measured MIC Enterococcus faecalis (GC 4553) of CC(c1ccccc1)C1NC(=O)CNC(=O)C(CO)NC(=O)C(C(O)C2CNC(=N)N2C2OC(CO)C(O)C(O)C2O)NC(=O)C(C(O)C2CNC(=N)N2)NC(=O)C(Cc2ccc(OC3OC(CO)C(OC4OC5COC6(CCSCC6)OC5C(O)C4O)C(O)C3O)cc2)NC1=O (stereo not shown) : 32

Measured MIC Enterococcus faecalis (GC 4553) of CC(c1ccccc1)C1NC(=O)CNC(=O)C(CO)NC(=O)C(C(O)C2CNC(=N)N2C2OC(CO)C(O)C(O)C2O)NC(=O)C(C(O)C2CNC(=N)N2)NC(=O)C(Cc2ccc(OC3OC(CO)C(OC4OC5COC6(CCCCCCCCCCCC6)OC5C(O)C4O)C(O)C3O)cc2)NC1=O (stereo not shown) : 16
